All figures here come from patent US20230081426A1.

# test-system: G12V-mutant human KRAS (amino acid residues 1-188) (Homo sapiens, UniProt P01116, G12V)
# Construct: G12V-mutant human KRAS (amino acid residues 1-188) with FLAG tag was purified from E. coli; made in house; host or cells: E. coli
# assay-method-text: KRAS Binding Competition Assay (AlphaScreen; biotinylated KRpep-2d analogue), G12V
# cond: geometric mean, read-out: KRAS GMean IC50 (uM) MUTATION: G12V
metric: IC50

Sample answers from the record:
>>> obs_value("C=CC(=O)N1[C@@H]2CC[C@H]1CN(c1nc(OC[C@@]34CCCN3C[C@H](F)C4)nc3c(F)c(-c4cc(O)cc5cccc(Cl)c45)ccc13)C2")
"0.0001 to 10 µM"
>>> obs_value("O=C1NC(=O)/C(=C/C(=O)N2[C@@H]3CC[C@H]2CN(c2nc(OCC45CCCN4CCC5)nc4c(F)c(-c5cc(O)cc6ccccc56)ccc24)C3)S1")
"0.0001 to 10 µM"

Query :: Entry CN1CCC[C@H]1COc1nc(N2C[C@H]3CC[C@@H](C2)N3C(=O)Cc2cc[nH]n2)c2ccc(-c3cc(O)cc4ccccc34)c(F)c2n1 : reported IC50 = ?
Result :: 10 to 100 µM

###

IC50 listing for selected compounds.
# test-system: G12D-mutant human KRAS (amino acid residues 1-188) (Homo sapiens, UniProt P01116, G12D)
# Construct: G12D or G12C-mutant human KRAS (amino acid residues 1-188) with FLAG tag; made in house; host or cells: E. coli
# assay-method-text: KRAS Binding Disruption Assay (AlphaScreen; biotinylated KRpep-2d analogue or RAF1-RBD), G12D
# cond: KRAS G12D; geometric mean; read-out: KRAS GMean IC50 (uM) MUTATION: G12D

Sample answers from the record:
>>> obs_value("CN1CCC[C@H]1COc1nc(N2C[C@H]3CC[C@@H](C2)N3)c2ccc(-c3nc(N)cc4ccccc34)c(F)c2n1")
"0.0001 to 10 µM"
>>> obs_value("CN1CCC[C@H]1COc1nc(N2C[C@H]3CC[C@@H](C2)N3)c2cc(F)c(-c3c[nH]c4cccc(Cl)c34)c(F)c2n1")
"10 to 100 µM"

Query :: Entry COC(=O)CCC(=O)N1[C@@H]2CC[C@H]1CN(c1nc(OCC34CCCN3CCC4)nc3cc(-c4cc(O)cc5ccccc45)ccc13)C2 : reported IC50 = ?
Result :: 0.0001 to 10 µM

Query :: Consider next the compound CN1CCC[C@H]1COc1nc(N2C[C@H]3CC[C@@H](C2)N3)c2ccc(-c3c(O)ccc4ccccc34)cc2n1 in the same way.
Result :: 0.0001 to 10 µM

###

# test-system: G12V-mutant human KRAS (amino acid residues 1-188) (Homo sapiens, UniProt P01116, G12V)
# Construct: G12V-mutant human KRAS (amino acid residues 1-188) with FLAG tag was purified from E. coli; made in house; host or cells: E. coli
# assay-method-text: KRAS Binding Competition Assay (AlphaScreen; biotinylated KRpep-2d analogue), G12V
# cond: geometric mean, read-out: KRAS GMean IC50 (uM) MUTATION: G12V
metric: IC50

Sample answers from the record:
>>> obs_value("CN1CCC[C@H]1COc1nc(N2[C@@H]3CC[C@H]2CN(CC(O)CO)C3)c2ccc(-c3cc(O)cc4ccccc34)cc2n1 (stereo partly shown)")
"10 to 100 µM"
>>> obs_value("CONC(=O)N1C[C@H]2CC[C@@H](C1)N2c1nc(OC[C@@H]2CCCN2C)nc2cc(-c3cc(O)cc4ccccc34)ccc12")
"10 to 100 µM"
>>> obs_value("CN1CCC[C@H]1COc1nc(N2C[C@H]3CC[C@@H](C2)N3)c2cnc(N3CC(=O)Nc4cccc(Cl)c43)c(F)c2n1")
"100 to 1000 µM"
>>> obs_value("CN1CCC[C@H]1COc1nc(N2C[C@H]3CC[C@@H](C2)N3)c2cc(F)c(-c3c[nH]c4ccccc34)c(F)c2n1")
"10 to 100 µM"
>>> obs_value("CN1CCC[C@H]1COc1nc(N2[C@@H]3CC[C@H]2CNC3)c2ccc(-c3c(O)cccc3Cl)cc2n1")
"10 to 100 µM"

Query :: Entry Cc1[nH][nH]c(=O)c1CC(=O)N1[C@@H]2CC[C@H]1CN(c1nc(OCC34CCCN3CCC4)nc3c(F)c(-c4cc(O)cc5ccccc45)ccc13)C2 : reported IC50 = ?
Result :: 0.0001 to 10 µM

Query :: Consider next the compound CN1CCC[C@H]1COc1nc(N2C[C@H]3CC[C@@H](C2)N3)c2cc(F)c(-c3c(O)cccc3F)c(F)c2n1 in the same way.
Result :: 10 to 100 µM

###

IC50 listing for selected compounds.
# test-system: G12V-mutant human KRAS (amino acid residues 1-188) (Homo sapiens, UniProt P01116, G12V)
# Construct: G12V-mutant human KRAS (amino acid residues 1-188) with FLAG tag was purified from E. coli; made in house; host or cells: E. coli
# assay-method-text: KRAS Binding Competition Assay (AlphaScreen; biotinylated KRpep-2d analogue), G12V
# cond: geometric mean, read-out: KRAS GMean IC50 (uM) MUTATION: G12V

Sample answers from the record:
>>> obs_value("CN1CCC[C@H]1COc1nc(N2[C@@H]3CC[C@H]2CN(C(=O)[C@@H]2C[C@@H](O)CN2)C3)c2ccc(-c3cc(O)cc4ccccc34)cc2n1 [P-0204]")
"10 to 100 µM"
>>> obs_value("CN1CCC[C@H]1COc1nc(N2C[C@H]3CC[C@@H](C2)N3C(=N)N)c2ccc(-c3cc(O)cc4ccccc34)c(F)c2n1")
"10 to 100 µM"
>>> obs_value("CN(C)c1ccc(/C=C/c2nc(N3[C@@H]4CC[C@H]3CNC4)c3ccc(-c4cc(O)cc5ccccc45)cc3n2)cc1")
"10 to 100 µM"
>>> obs_value("NCC(=O)N1[C@@H]2CC[C@H]1CN(c1nc(OCC34CCCN3CCC4)nc3cc(-c4cc(O)cc5ccccc45)ccc13)C2")
"0.0001 to 10 µM"

Query :: Entry N#CCc1cccc2[nH]cc(-c3ccc4c(N5C[C@H]6CC[C@@H](C5)N6)nc(OCC56CCCN5CCC6)nc4c3F)c12 : reported IC50 = ?
Result :: 10 to 100 µM

Query :: Consider next the compound CN1CCC[C@H]1COc1nc(N2C[C@H]3CC[C@@H](C2)N3C(=O)CO)c2ccc(-c3cc(O)cc4ccccc34)c(F)c2n1 in the same way.
Result :: 0.0001 to 10 µM

Query :: Consider next the compound CN1CCC[C@H]1COc1nc(N2CC3CC(C2)N3)c2cc(Cl)c(-c3cc(O)cc4ccccc34)c(F)c2n1 in the same way.
Result :: 10 to 100 µM

Query :: Consider next the compound CN1CCC[C@H]1COc1nc(N2C[C@H]3CC[C@@H](C2)N3)c2ccc(Nc3n[nH]c4ccccc34)cc2n1 in the same way.
Result :: 10 to 100 µM

Query :: Consider next the compound CN1CCC[C@H]1COc1nc(N2C[C@H]3CC[C@@H](C2)N3)c2ccc(-c3ccc4c(c3)NC(=O)CO4)cc2n1 in the same way.
Result :: 100 to 1000 µM

###

# test-system: G12V-mutant human KRAS (amino acid residues 1-188) (Homo sapiens, UniProt P01116, G12V)
# Construct: G12V-mutant human KRAS (amino acid residues 1-188) with FLAG tag was purified from E. coli; made in house; host or cells: E. coli
# assay-method-text: KRAS Binding Competition Assay (AlphaScreen; biotinylated KRpep-2d analogue), G12V
# cond: geometric mean, read-out: KRAS GMean IC50 (uM) MUTATION: G12V
metric: IC50

Sample answers from the record:
>>> obs_value("CN1CCC[C@H]1COc1nc(N2C[C@H]3CC[C@@H](C2)N3C(=O)CC2SC(=O)NC2=O)c2cc(Cl)c(-c3cc(O)cc4ccccc34)c(F)c2n1 (some centres unmarked)")
"0.0001 to 10 µM"
>>> obs_value("CN(C)C1(C)CN(c2nc(N3C[C@H]4CC[C@@H](C3)N4)c3ccc(-c4cc(O)cc5ccccc45)c(F)c3n2)C1")
"10 to 100 µM"
>>> obs_value("Oc1cc(-c2ccc3c(C4C[C@H]5CC[C@@H](C4)N5)nc(OCC45CCCN4CCC5)nc3c2)c2ccccc2c1 (some centres unmarked)")
"10 to 100 µM"
>>> obs_value("Nc1cc(-c2c(F)cc3c(N4C[C@H]5CC[C@@H](C4)N5)nc(OCC45CCCN4CCC5)nc3c2F)ccc1Cl")
"100 to 1000 µM"
>>> obs_value("N#Cc1ccc(CCc2nc(N3[C@@H]4CC[C@H]3CNC4)c3ccc(-c4cc(O)cc5ccccc45)cc3n2)cc1")
"10 to 100 µM"

Query :: Entry CN1CCC[C@H]1COc1nc(N2[C@@H]3CC[C@H]2CN(C(=O)CC2CCCNC2)C3)c2ccc(-c3cc(O)cc4ccccc34)cc2n1 (some centres unmarked) : reported IC50 = ?
Result :: 10 to 100 µM

Query :: Consider next the molecule CN1CCC[C@H]1COc1nc(N2[C@@H]3CC[C@H]2CN(C(=O)c2c[nH]cn2)C3)c2ccc(-c3cc(O)cc4ccccc34)cc2n1 in the same way.
Result :: 0.0001 to 10 µM

Query :: Consider next the molecule CN1CCN(CCNC(=O)N2[C@@H]3CC[C@H]2CN(c2nc(OCC4CCCN4C)nc4c(F)c(-c5cc(O)cc6ccccc56)ccc24)C3)CC1 (some centres unmarked) in the same way.
Result :: 10 to 100 µM
